# measured_target: T1, Bre1-LR (Bre1 residues 227–700, LBD and RING domains), 6× histidine tag (budding yeast, UniProt Q07457 227-700)
# T1 construct: two Bre1 polypeptides form the dimeric coiled-coils of the LBD in the crystal structure; also called WT; source: E. coli BL21 Rosetta (DE3), purified (Ni-NTA, heparin, gel filtration)
# T1 sequence (looked up): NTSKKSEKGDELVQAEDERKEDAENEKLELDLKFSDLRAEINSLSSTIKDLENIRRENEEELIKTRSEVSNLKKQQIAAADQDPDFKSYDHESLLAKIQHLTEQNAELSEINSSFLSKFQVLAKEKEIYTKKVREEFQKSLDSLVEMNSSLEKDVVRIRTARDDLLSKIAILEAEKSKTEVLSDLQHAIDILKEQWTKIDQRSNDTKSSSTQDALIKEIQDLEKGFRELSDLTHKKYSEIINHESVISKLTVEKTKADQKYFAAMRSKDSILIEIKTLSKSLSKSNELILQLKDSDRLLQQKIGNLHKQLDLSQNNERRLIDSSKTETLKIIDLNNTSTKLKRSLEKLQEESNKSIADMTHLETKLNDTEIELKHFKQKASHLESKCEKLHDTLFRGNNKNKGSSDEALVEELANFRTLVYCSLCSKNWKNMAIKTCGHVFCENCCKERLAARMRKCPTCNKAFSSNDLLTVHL
# protocol_text: SPR; Lge1-CT immobilised on a CM5 chip, Bre1-LR flown over; Biacore 8K, 25°C, 20 mM HEPES (pH 7.5), 200 mM sodium chloride, 0.02% Tween 20
# applied_conditions: both partners purified
# Lookup of reported Kd keyed by entry
Record the value in nM, omitting the unit from your answer.

Some solved entries appear below for comparison.
# binder, test_value
records = [
    ("Lge1-CT (Lge1 residues 261–332), intein-chitin binding domain (CBD) tag construct (domain or fragment, budding yeast, UniProt Q02796 261-332, looked up, Lge1, budding yeast, residues 261-332; residues 268–331 resolved in the electron density; the intein-CBD tag is named on the protein in the pull-down; also called intein-CBD-fused Lge1-CT; intein-CBD-tagged Lge1-CT; source: E. coli BL21 Rosetta (DE3): cleared cell extract on chitin resin (pull-down); purified (chitin, heparin, gel filtration) for ITC and SPR; co-purified with Bre1-LR for the …) KNVKKTNNTESECEKAREVFKESDSIDSALEELNLKINSNELELRLLNNQCDKHALNIQLTQEKLDSLLLMQ", 17.5),
    ("Lge1-CT K324E (domain or fragment, budding yeast, UniProt Q02796 261-332, looked up, Lge1, budding yeast, residues 261-332; source: E. coli BL21 Rosetta (DE3): cleared cell extract on chitin resin (pull-down); purified (chitin, heparin, gel filtration) for ITC and SPR) KNVKKTNNTESECEKAREVFKESDSIDSALEELNLKINSNELELRLLNNQCDKHALNIQLTQEELDSLLLMQ", 49.8),
    ("Lge1-CT E303K (domain or fragment, budding yeast, UniProt Q02796 261-332, looked up, Lge1, budding yeast, residues 261-332; source: E. coli BL21 Rosetta (DE3): cleared cell extract on chitin resin (pull-down); purified (chitin, heparin, gel filtration) for ITC and SPR) KNVKKTNNTESECEKAREVFKESDSIDSALEELNLKINSNELKLRLLNNQCDKHALNIQLTQEKLDSLLLMQ", 63.8),
    ("Lge1-CT L316N (domain or fragment, budding yeast, UniProt Q02796 261-332, looked up, Lge1, budding yeast, residues 261-332; source: E. coli BL21 Rosetta (DE3): cleared cell extract on chitin resin (pull-down); purified (chitin, heparin, gel filtration) for ITC and SPR) KNVKKTNNTESECEKAREVFKESDSIDSALEELNLKINSNELELRLLNNQCDKHANNIQLTQEKLDSLLLMQ", 62.8),
    ("Lge1-CT I318D (domain or fragment, budding yeast, UniProt Q02796 261-332, looked up, Lge1, budding yeast, residues 261-332; source: E. coli BL21 Rosetta (DE3): cleared cell extract on chitin resin (pull-down); purified (chitin, heparin, gel filtration) for ITC and SPR) KNVKKTNNTESECEKAREVFKESDSIDSALEELNLKINSNELELRLLNNQCDKHALNDQLTQEKLDSLLLMQ", 20.7),
    ("Lge1-CT L325N (domain or fragment, budding yeast, UniProt Q02796 261-332, looked up, Lge1, budding yeast, residues 261-332; source: E. coli BL21 Rosetta (DE3): cleared cell extract on chitin resin (pull-down); purified (chitin, heparin, gel filtration) for ITC and SPR) KNVKKTNNTESECEKAREVFKESDSIDSALEELNLKINSNELELRLLNNQCDKHALNIQLTQEKNDSLLLMQ", 58.7),
    ("Lge1-CT K313E/H314E (domain or fragment, budding yeast, UniProt Q02796 261-332, looked up, Lge1, budding yeast, residues 261-332; source: E. coli BL21 Rosetta (DE3): cleared cell extract on chitin resin (pull-down); purified (chitin, heparin, gel filtration) for ITC and SPR) KNVKKTNNTESECEKAREVFKESDSIDSALEELNLKINSNELELRLLNNQCDEEALNIQLTQEKLDSLLLMQ", 51.8),
    ("Lge1-CT E301K/R305E (domain or fragment, budding yeast, UniProt Q02796 261-332, looked up, Lge1, budding yeast, residues 261-332; source: E. coli BL21 Rosetta (DE3): cleared cell extract on chitin resin (pull-down); purified (chitin, heparin, gel filtration) for ITC and SPR) KNVKKTNNTESECEKAREVFKESDSIDSALEELNLKINSNKLELELLNNQCDKHALNIQLTQEKLDSLLLMQ", 81.7),
]

Proceeding to the next binder to report its Kd.
Data request, read-out Kd, for Lge1-CT L320N (domain or fragment, budding yeast, UniProt Q02796 261-332, looked up, Lge1, budding yeast, residues 261-332; source: E. coli BL21 Rosetta (DE3): cleared cell extract on chitin resin (pull-down); purified (chitin, heparin, gel filtration) for ITC and SPR) KNVKKTNNTESECEKAREVFKESDSIDSALEELNLKINSNELELRLLNNQCDKHALNIQNTQEKLDSLLLMQ
50.8
